Biological target: GABA-A receptor; anion channel
Assay: GPCRScan assay: inhibition of GABAA/BZP
Format: protein-complex assay, Rattus norvegicus
Parameters: radioligand conc. used [nm] 0.6 – 4.0, parental cells brain tissue

{"CHEMICAL STRING": "CC(=O)c1c(NS(C)(=O)=O)c2cc(-c3ccc(Cl)cc3)c(-c3ccc(Cl)cc3Cl)nc2n(C)c1=O", "Ki": "1660 nM"}

====

Target: Beta-3 adrenergic receptor (Homo sapiens, UniProt P13945)
Sequence (P13945 whole entry): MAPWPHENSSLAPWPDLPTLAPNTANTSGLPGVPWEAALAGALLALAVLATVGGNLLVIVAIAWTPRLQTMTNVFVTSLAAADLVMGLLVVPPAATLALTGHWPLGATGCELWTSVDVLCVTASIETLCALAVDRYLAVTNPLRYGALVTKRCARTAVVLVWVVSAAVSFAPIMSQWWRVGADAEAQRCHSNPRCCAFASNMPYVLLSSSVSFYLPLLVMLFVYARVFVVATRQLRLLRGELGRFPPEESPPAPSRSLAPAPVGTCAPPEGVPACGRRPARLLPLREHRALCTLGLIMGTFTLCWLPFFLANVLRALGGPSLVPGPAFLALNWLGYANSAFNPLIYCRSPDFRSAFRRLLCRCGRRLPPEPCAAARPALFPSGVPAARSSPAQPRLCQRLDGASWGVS

{"CHEMICAL STRING": "CC(=O)c1c(NS(C)(=O)=O)c2cc(-c3ccc(Cl)cc3)c(-c3ccc(Cl)cc3Cl)nc2n(C)c1=O", "TARGET ENTITY": "Beta-3 adrenergic receptor (Homo sapiens, UniProt P13945)", "MEASUREMENT UNIT": "nM", "Ki": 1130}
